- ASSAY NOTES: Toxicity in human erythrocytes assessed as hemolytic activity at 500 ug/ml after 1 hr
- Format: cell-based, Erythrocyte
- RUN PARAMETERS: read-out: Activity
Listing of entries alongside the reported hemolysis at 1 h, 500 ug/ml.
State just the number; it will be interpreted in %.

Sample records with hemolysis at 1 h, 500 ug/ml:
C=CC1C[N+]2(CC(=O)c3ccc(OC)cc3)CCC1CC2[C@H](O)c1ccnc2ccc(OC)cc12.[Br-] (stereo partly specified)
0
C=C[C@H]1C[N@@]2CC[C@H]1C[C@H]2[C@H](O)c1ccnc2ccc(OC)cc12
0
C=CC1C[N+]2(CC(=O)c3cccc4ccccc34)CCC1CC2[C@H](O)c1ccnc2ccc(OC)cc12.[Br-] (stereo partly specified)
9
C=CC1C[N+]2(CC(=O)c3ccccc3)CCC1CC2[C@H](O)c1ccnc2ccc(OC)cc12.[Br-] (stereo partly specified)
0
C=CC1C[N+]2(CC(=O)c3ccc(Br)cc3)CCC1CC2[C@H](O)c1ccnc2ccc(OC)cc12.[Br-] (stereo partly specified)
0

Now, please, on to the next compound.
stdin: Item C=CC1C[N+]2(CC(=O)c3ccc([N+](=O)[O-])cc3)CCC1CC2[C@H](O)c1ccnc2ccc(OC)cc12.[Br-] (stereo partly specified) has what recorded hemolysis at 1 h, 500 ug/ml?
stdout: 0

These data points were gathered from ChEMBL document CHEMBL1149559.
